# System under test: Human VPS34 (Homo sapiens, UniProt Q8NEB9)
# Construct: GST (N); host or cells: SF9 insect cells (baculovirus)
# Sequence (Q8NEB9 whole entry): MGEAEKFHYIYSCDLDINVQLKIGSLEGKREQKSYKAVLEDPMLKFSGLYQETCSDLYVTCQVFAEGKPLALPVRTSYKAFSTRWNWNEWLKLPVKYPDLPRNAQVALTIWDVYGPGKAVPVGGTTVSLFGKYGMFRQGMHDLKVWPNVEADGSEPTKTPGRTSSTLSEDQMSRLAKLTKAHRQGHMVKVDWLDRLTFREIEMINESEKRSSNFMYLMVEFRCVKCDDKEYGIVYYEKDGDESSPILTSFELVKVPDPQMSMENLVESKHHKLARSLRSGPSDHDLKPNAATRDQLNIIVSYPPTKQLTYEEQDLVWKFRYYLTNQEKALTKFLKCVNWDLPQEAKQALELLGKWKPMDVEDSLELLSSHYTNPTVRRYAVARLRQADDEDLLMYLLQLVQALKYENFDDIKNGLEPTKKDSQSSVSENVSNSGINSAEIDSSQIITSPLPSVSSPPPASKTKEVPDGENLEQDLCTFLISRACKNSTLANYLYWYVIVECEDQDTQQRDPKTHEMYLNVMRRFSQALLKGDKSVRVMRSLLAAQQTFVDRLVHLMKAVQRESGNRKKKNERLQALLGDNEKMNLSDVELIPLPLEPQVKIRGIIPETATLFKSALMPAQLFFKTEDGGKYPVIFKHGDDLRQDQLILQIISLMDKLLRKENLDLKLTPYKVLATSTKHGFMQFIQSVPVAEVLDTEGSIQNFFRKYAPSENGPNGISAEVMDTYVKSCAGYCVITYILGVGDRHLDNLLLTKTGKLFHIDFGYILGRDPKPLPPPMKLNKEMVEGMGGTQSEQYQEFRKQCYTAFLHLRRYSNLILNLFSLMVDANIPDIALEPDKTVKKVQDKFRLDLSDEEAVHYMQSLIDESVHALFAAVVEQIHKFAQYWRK
# Test description: Human VPS34 Enzyme Assay (Adapta TR-FRET)
# Type: biochemical
# Measurement context: compound at 1.111 μM; read-out: Average VPS34 % INH @ 1.111 μM
Quantity kind: inhibition at 1.111 µM
Quote the value and follow it with the unit of measurement.

| Smiles representation | Experimental value |
| --- | --- |
| CC(=O)Nc1cc(-c2cc(-c3cc[nH]n3)c(-c3ccccc3Cl)o2)c(C)cn1 | 130% |
| CC(=O)Nc1cc(-c2cc(C(=O)NCc3cccs3)c(-c3ccccc3Cl)o2)c(C)cn1 | 117% |
| CC(=O)Nc1cc(-c2cc(C(=O)NCCCn3ccnc3)c(-c3ccccc3Cl)o2)c(C)cn1 | 102% |
| CC(=O)Nc1cc(-c2nc(C(N)=O)c(-c3ccccc3Cl)o2)c(C)cn1 | 112% |
| CC(=O)Nc1cc(-c2cc(C(=O)NCCn3ccnc3)c(-c3ccccc3Cl)o2)c(C)cn1 | 61% |
| CC(=O)Nc1cc(-c2cc(C(=O)NC3CCC3)c(-c3ccccc3Cl)o2)c(C)cn1 | 88% |
| COCC(=O)Nc1cc(-c2nc(-c3nnc[nH]3)c(-c3ccccc3Cl)o2)ccn1 | 109% |
| CC(=O)Nc1cc(-c2cc(C(=O)NCc3ccco3)c(-c3ccccc3Cl)o2)c(C)cn1 | 114% |

Batch request: inhibition at 1.111 µM for each of the following molecules.
1. CC(=O)Nc1cc(-c2cc(C(=O)Nc3nccs3)c(-c3ccccc3Cl)o2)c(C)cn1
2. O=C(Nc1cc(-c2nc(-c3nnc[nH]3)c(-c3ccccc3Cl)o2)ccn1)C1CC1
3. CCNC(=O)c1nc(-c2cc(NC(C)=O)ncc2C)oc1-c1ccccc1Cl
4. CC(=O)Nc1cc(-c2nc(C(=O)NCc3ccccc3)c(-c3ccccc3Cl)o2)c(C)cn1
5. CC(=O)Nc1cc(-c2nc(-c3nccs3)c(-c3ccccc3Cl)o2)c(C)cn1
6. CC(=O)Nc1cc(-c2nc(-c3ccccc3Cl)c(C(N)=O)o2)c(C)cn1

Response:
1. 103%
2. 120%
3. 101%
4. 20%
5. 122%
6. 108%

Batch request: inhibition at 1.111 µM for each of the following molecules.
1. CC(=O)Nc1cc(-c2cc(C(=O)O)c(-c3ccccc3Cl)o2)ccn1
2. CCCC(=O)Nc1cc(-c2nc(-c3nnc[nH]3)c(-c3ccccc3Cl)o2)ccn1

Response:
1: 124%; 2: 79%

---

# System under test: Human VPS34 (Homo sapiens, UniProt Q8NEB9)
# Construct: GST (N); host or cells: SF9 insect cells (baculovirus)
# Test description: Human VPS34 Enzyme Assay (Adapta TR-FRET)
# Assay type: biochemical
# Measurement context: compound at 1.111 μM; read-out: Average VPS34 % INH @ 1.111 μM
Quantity kind: inhibition at 1.111 µM (%)
Answers are plain numbers, in %.

Take a look at these entries with their results.
| Smiles representation | inhibition at 1.111 µM / % |
| --- | --- |
| CC(=O)Nc1cc(-c2nc(-c3cc(CN4CCCC4)ccc3Cl)c(-c3nnc[nH]3)o2)c(C)cn1 | 131 |
| CC(=O)Nc1cc(-c2cc(-c3nnc[nH]3)c(-c3ccccc3Cl)o2)c(C)cn1 | 139 |
| O=C(Cc1ccc(O)cc1)Nc1cc(-c2nc(-c3nnc[nH]3)c(-c3ccccc3Cl)o2)ccn1 | 94 |
| CC(=O)Nc1cc(-c2cc(C(C)=O)c(-c3ccccc3Cl)o2)c(C)cn1 | 133 |

Batch request: inhibition at 1.111 µM for each of the following compounds.
1. CC(=O)Nc1cc(-c2cc(C(=O)NCc3ccc(N(C)C)cc3)c(-c3ccccc3Cl)o2)c(C)cn1
2. CC(=O)Nc1cc(-c2cc(-c3nnc[nH]3)c(-c3cc(CN(C)C)ccc3Cl)o2)c(C)cn1
3. CC(=O)Nc1cc(-c2cc(C(=O)NCc3ccccn3)c(-c3ccccc3Cl)o2)c(C)cn1

Response:
1: 56; 2: 147; 3: 150

Request: Recorded inhibition at 1.111 µM of "CC(=O)Nc1cc(-c2cc(-c3nnc[nH]3)c(N3CCCS3(=O)=O)o2)c(C)cn1" , please.
Response: 127

---

So I've got a bunch of molecules here, and I need their inhibition at 1.111 µM values.
# System under test: Human VPS34 (Homo sapiens)
# Construct: GST (N); host or cells: SF9 insect cells (baculovirus)
# Test description: Human VPS34 Enzyme Assay (Adapta TR-FRET)
# Type: biochemical
# Measurement context: compound at 1.111 μM; read-out: Average VPS34 % INH @ 1.111 μM
Give bare numbers, in %.

Take a look at these entries with their results.
| Molecule | inhibition at 1.111 µM / % |
| --- | --- |
| CC(=O)Nc1cc(-c2nc(C(=O)NC[C@@H](C)O)c(-c3ccccc3Cl)o2)c(C)cn1 (stereo in doubt) | 51 |
| CC(=O)Nc1cc(-c2nc(C(=O)NC3CCC3)c(-c3ccccc3Cl)o2)c(C)cn1 | 28 |
| CC(=O)Nc1cc(-c2nc(C(=O)NCc3cccs3)c(-c3ccccc3Cl)o2)c(C)cn1 | 43 |

Next, consider the following molecule.
Request: Recorded inhibition at 1.111 µM of "COCCNC(=O)c1nc(-c2cc(NC(C)=O)ncc2C)oc1-c1ccccc1Cl" , please.
Response: 64

---

So I've got a bunch of molecules here, and I need their inhibition at 1.111 µM values.
# System under test: Human VPS34 (Homo sapiens, UniProt Q8NEB9)
# Construct: GST (N); host or cells: SF9 insect cells (baculovirus)
# Test description: Human VPS34 Enzyme Assay (Adapta TR-FRET)
# Assay type: biochemical
# Measurement context: compound at 1.111 μM; read-out: Average VPS34 % INH @ 1.111 μM
# Experimental: VPS34 (accession number GB:BC033004) was cloned into pDEST20-Thombin as N-terminal GST tagged fusion proteins using the Gateway system (Invitrogen, catalog#11804-013). […] 100 nL compounds in DMSO are added to wells of a 384 well microtitre plate (Greiner 780076). […] The plates are then incubated for 30 minutes at room temperature with shaking and then read on a BMG PheraStar Plus reader. […]
Give bare numbers, in %.

Take a look at these entries with their results.
| Molecule | inhibition at 1.111 µM (%) |
| --- | --- |
| CC(=O)Nc1cc(-c2nc(C(=O)O)c(-c3ccccc3Cl)o2)c(C)cn1 [Compound I-6] | 99 |
| CC(=O)Nc1cc(-c2cc(C(=O)NCCc3cn4ccccc4n3)c(-c3ccccc3Cl)o2)c(C)cn1 [Compound I-41] | 90 |
| CC(=O)Nc1cc(-c2cc(C(=O)N(C)C)c(-c3ccccc3Cl)o2)c(C)cn1 [Compound I-61] | 96 |

Batch request: inhibition at 1.111 µM for each of the following molecules.
1. CC(=O)Nc1cc(-c2nc(C(=O)NC(C)C)c(-c3ccccc3Cl)o2)c(C)cn1 [Compound I-21]
2. CCC(=O)Nc1cc(-c2nc(-c3nnc[nH]3)c(-c3ccccc3Cl)o2)ccn1 [Compound I-75]
3. CC(=O)Nc1cc(-c2nc(C(=O)Nc3cnccn3)c(-c3ccccc3Cl)o2)c(C)cn1 [Compound I-31]
4. CC(=O)Nc1cc(-c2cc(C(=O)NCc3ccccc3)c(-c3ccccc3Cl)o2)c(C)cn1 [Compound I-53]
5. CC(=O)Nc1cc(-c2nc(-c3ccccc3Cl)c(-c3cc[nH]n3)o2)c(C)cn1 [Compound I-57]

Response:
25
114
56
104
135

---

So I've got a bunch of compounds here, and I need their inhibition at 1.111 µM values.
# System under test: Human VPS34 (Homo sapiens, UniProt Q8NEB9)
# Construct: GST (N); host or cells: SF9 insect cells (baculovirus)
# Test description: Human VPS34 Enzyme Assay (Adapta TR-FRET)
# Format: biochemical
# Measurement context: compound at 1.111 μM; read-out: Average VPS34 % INH @ 1.111 μM
Numbers only, in %.

| Compound | System under test | Experimental value |
| --- | --- | --- |
| CC(=O)Nc1cc(-c2nc(C(=O)NCCCCO)c(-c3ccccc3Cl)o2)c(C)cn1 | Human VPS34 (Homo sapiens, UniProt Q8NEB9) | 95 |
| CC(=O)Nc1cc(-c2nc(C(=O)NCc3ccco3)c(-c3ccccc3Cl)o2)c(C)cn1 | Human VPS34 (Homo sapiens, UniProt Q8NEB9) | 64 |
| CC(=O)Nc1cc(-c2nc(N3CCCC(N(C)C)C3)c(-c3nnc[nH]3)o2)c(C)cn1 (centres unmarked) | Human VPS34 (Homo sapiens, UniProt Q8NEB9) | 82 |
| Nc1cc(-c2nc(-c3nnc[nH]3)c(-c3ccccc3Cl)o2)ccn1 | Human VPS34 (Homo sapiens, UniProt Q8NEB9) | 26 |
| O=C(Cc1ccccc1)Nc1cc(-c2nc(-c3nnc[nH]3)c(-c3ccccc3Cl)o2)ccn1 | Human VPS34 (Homo sapiens, UniProt Q8NEB9) | 39 |

Batch request: inhibition at 1.111 µM for each of the following compounds.
1. CC(=O)Nc1cc(-c2nc(-c3cc(CN4CCCC4)ccc3Cl)c(C(N)=O)o2)c(C)cn1
2. CCNC(=O)c1cc(-c2cc(NC(C)=O)ncc2C)oc1-c1ccccc1Cl
3. CC(=O)Nc1cc(-c2cc(C(=O)NCCCN3CCCC3)c(-c3ccccc3Cl)o2)c(C)cn1
4. CC(=O)Nc1cc(-c2nc(C(=O)NCc3ccccn3)c(-c3ccccc3Cl)o2)c(C)cn1
5. CC(=O)Nc1cc(-c2nc(-c3cc(CN4CCCC4)ccc3Cl)c(C(=O)O)o2)c(C)cn1
6. CC(=O)Nc1cc(-c2nc(C(=O)NCCn3ccnc3)c(-c3ccccc3Cl)o2)c(C)cn1
7. CC(=O)Nc1cc(-c2nc(-c3cc[nH]n3)c(-c3ccccc3Cl)o2)c(C)cn1
8. CC(=O)Nc1cc(-c2nc(-c3ccccc3Cl)c(-c3nnc[nH]3)o2)c(C)cn1

Response:
[81, 112, 54, 37, 131, 45, 114, 125]

Reference source for all entries: patent US8859768B2
